Recorded values, source patent EP2623502A1.

testDetails: Stability test in water (residual compound by HPLC)
Assay type: physicochemical
assayConditions: 30 days in water at 20°C, read-out: stably present after being left in water
Method: The strigolactone-like compound BPMF was left for 30 days in water at 20°C, and change in its activity was then determined. Briefly speaking, rice was hydroponically cultured in the same way as in the hydroponic rice culture solution test conducted in Example 3, and the amount of a residual compound in the resulting solution was calculated using HPLC. […] Then, a predetermined amount (e.g., 10 µl) was analyzed by HPLC. […]
observationType: remaining at 720 h

[ask] Could you share which remaining at 720 h value was measured for CC1=CC(Oc2ccc(Br)cc2)OC1=O (stereo not shown) [BPMF] ?
[reply] ≥ 95%
